test: in vivo; conditions: male, ICR, mouse, po
quantityKind: Tmax (h)
Report as a plain number; the unit h is understood.

Record summary for N[C@@H](CCC(=O)N[C@@H](CS)C(=O)NCC(=O)O)C(=O)O : reported Tmax = 2

----------
assay: in vivo; settings: male, ICR, mouse, po
quantityKind: Cmax (ng/mL)
Report as a plain number; the unit ng/mL is understood.

Record summary for N[C@@H](CCC(=O)N[C@@H](CS)C(=O)NCC(=O)O)C(=O)O [GSH, Glutathione] : reported Cmax = 7370

----------
assay: in vivo; settings: male, ICR, mouse, po
quantityKind: AUC (ng·h/mL)
Report as a plain number; the unit ng·h/mL is understood.

Record summary for N[C@@H](CCC(=O)N[C@@H](CS)C(=O)NCC(=O)O)C(=O)O : reported AUC = 19200
